Target: Fibroblast growth factor 22 (Homo sapiens) (UniProt Q9HCT0)
Sequence (Q9HCT0 whole entry, looked up): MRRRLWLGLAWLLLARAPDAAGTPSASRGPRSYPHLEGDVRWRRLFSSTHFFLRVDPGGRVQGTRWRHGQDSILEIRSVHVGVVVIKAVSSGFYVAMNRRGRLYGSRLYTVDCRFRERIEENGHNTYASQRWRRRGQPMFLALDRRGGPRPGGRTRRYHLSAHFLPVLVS
Experiment: binders of human FGF22 protein, primary screen, FGF22 synaptogenesis inhibitor project, biophysical, thermal shift, single point (AID 651658)
Details: recombinant FGF22 thermal shift, SYPRO orange fluorescence; at 9.99 µM; percent of sucrose octasulfate shift, DMSO zero
Among all 340,000 compounds or so, about 5,100 (1.5%) were called active.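 How the source made its calls: active means mean Tm shift, scaled 0 neutral to 100 positive control, at about 1.3% or above, every replicate too (limit read from the data); inconclusive means no clear call, values can overlap the other calls; inactive means the rest.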 The entries come from a sample that favours actives as a whole.
Classes used: true (1) = active, false (0) = inactive

COc1ccc(C2NC(=O)N(C)C(C)=C2[N+](=O)[O-])cc1 (centres undefined) :: false (0)
CC(C)NC(=O)N(C)C[C@H]1OCCCC[C@@H](C)Oc2ccc(NC(=O)C3CCCCC3)cc2C(=O)N([C@H](C)CO)C[C@H]1C :: false (0)
CC1(Cc2cccc(C#N)c2)C(=O)Nc2ccc(-c3cccc(C(F)(F)F)c3)cc21 (centres undefined) :: false (0)
CCC(=O)N1C[C@@H](C)[C@H](OC)CN(C)C(=O)c2ccc(NC(=O)c3ccc(F)cc3)cc2OC[C@@H]1C :: false (0)
CO[C@@H]1CN(C)C(=O)c2cc(NC(C)=O)ccc2OC[C@H](C)N(C(=O)CC2CC2)C[C@@H]1C :: false (0)
CC(C)NC(=O)N(C)C[C@@H]1OCCCC[C@@H](C)Oc2ccc(NC(=O)NC3CCCCC3)cc2C(=O)N([C@@H](C)CO)C[C@@H]1C :: false (0)
Cn1cc(-c2ccccc2)cc(C#N)c1=O :: false (0)
O=C(C[C@H]1C[C@H]2c3cc(NC(=O)C4CCOCC4)ccc3O[C@H]2[C@@H](CO)O1)NCCN1CCCCC1 :: false (0)
Cc1cccc(C)c1NC(=S)N1CCCCCC1 :: false (0)
O=C1C=CCCN1C(=O)/C=C/c1ccc(F)cc1 :: true (1)
O=C(Cn1cnc2c(OCc3ccccc3)ncnc21)NCCCn1ccnc1 :: true (1)
O=C1CN(C(=O)COC(=O)/C=C/c2ccc(F)cc2)c2ccccc2N1 :: false (0)
COc1cccc(S(=O)(=O)N[C@@H]2C=C[C@H](CC(=O)NC3CCC3)O[C@H]2CO)c1 :: false (0)
O=C(N/C(=C\c1ccc(F)cc1)C(=O)N1CCCCCC1)c1ccccc1 :: false (0)
COC(=O)C1=C(C)N(C)C(=S)NC1c1ccccc1 (centres undefined) :: false (0)
Cc1cccc(C)c1NC(=O)CNC(=O)C1CCCC1 :: false (0)
O=C(N[C@H]1CC[C@@H](CCNS(=O)(=O)c2cccc(Cl)c2)O[C@@H]1CO)c1ccccc1 :: false (0)
C[C@H](CO)N1C[C@H](C)[C@H](CN(C)Cc2ccc(C(=O)Nc3ccccc3N)cc2)Oc2c(NC(=O)Nc3ccccc3)cccc2C1=O :: false (0)
C=CCn1cc(-c2cccc(C(F)(F)F)c2)cc(C#N)c1=O :: true (1)

* * *

Target: Fibroblast growth factor 22 (Homo sapiens) (UniProt Q9HCT0)
Test: binders of human FGF22 protein, primary screen, FGF22 synaptogenesis inhibitor project, biophysical, thermal shift, single point (AID 651658)
Conditions: recombinant FGF22 thermal shift, SYPRO orange fluorescence; at 9.99 µM; stronger effect = higher value; percent of sucrose octasulfate shift, DMSO zero
Out of some 340,000 compounds screened, about 5,100 (1.5%) were called active. The sample as a whole holds a higher share of actives than the screen did.
The molecules listed here are annotated with their activity (Tm shift, normalised).
Quantity Kind: activity (Tm shift, normalised) (%)

CCC(=O)Nc1ccc(C(=O)N2CCN(C(=O)c3ccco3)CC2)cc1 :: 44.4
COc1ccc(C(=O)CCc2ccccc2O)c(OC)c1 :: -0.131
CO[C@H]1CN(C)C(=O)c2cc(NC(=O)Nc3ccc4c(c3)OCO4)ccc2OC[C@@H](C)NC[C@@H]1C :: -0.132
COc1ccc2c3c([nH]c2c1)[C@H](CO)N(C(=O)c1ccccc1)CC31CCN(S(=O)(=O)c2cccs2)CC1 :: -0.133
COc1ccc(-n2nnnc2SCC(=O)c2ccc(OC)c(OC)c2)cc1 :: -0.381

* * *

Biological target: Fibroblast growth factor 22 (Homo sapiens)
Experiment: binders of human FGF22 protein, primary screen, FGF22 synaptogenesis inhibitor project, biophysical, thermal shift, single point (AID 651658)
Details: recombinant FGF22 thermal shift, SYPRO orange fluorescence; at 9.99 µM; stronger effect = higher value; percent of sucrose octasulfate shift, DMSO zero
Hit rate of the full screen: of about 340,000 compounds, about 5,100 (1.5%) were called active. For the sample, actives were picked, then their nearest neighbours and some compounds at random.
The compounds listed here are annotated with their activity (Tm shift, normalised).
Quantity Kind: activity (Tm shift, normalised) (%)

CC(=O)N1c2ccc(S(=O)(=O)N3CCC(C(=O)NCc4ccc(F)cc4)CC3)cc2CC1C (stereo not given) :: 1.48
CCNC(=O)C1(C)CCCN(C(=O)c2ccc3ccccc3n2)C1 (stereo not given) :: -0.027
COCCn1cnc2c1c(=O)n(Cc1ccc(Br)cc1)c(=O)n2Cc1ccccc1 :: 0.138
COc1ccc(OCCCn2cccc2/C=C2/C(=N)N3OC(C)=CC3=NC2=O)cc1 :: 43.6
Cc1cc(C)cc(NC(=O)CSc2ccccc2)c1 :: 43.4
CC(=O)N1c2ccc(S(=O)(=O)N3CCC(C(=O)NC4CCCCC4C)CC3)cc2CC1C (stereo not given) :: 0.24
CC(=O)N1c2ccc(S(=O)(=O)N3CCCC(C(=O)NCc4ccc(Cl)cc4)C3)cc2CC1C (stereo not given) :: 0.095
CC1=CC2=NC(=O)/C(=C/c3coc4ccccc4c3=O)C(=N)N2O1 :: 0.039
O=C(c1ccc2ccccc2n1)N1CCN(c2ccccc2Cl)CC1 :: 43.4
CC(C)N1C(=O)[C@@]2(Cc3ccccc31)c1ccccc1C(=O)N(C1CCCCC1)[C@H]2c1ccc(CO)cc1 :: -0.066

* * *

Target: Fibroblast growth factor 22 (Homo sapiens) (UniProt Q9HCT0)
Assay: binders of human FGF22 protein, primary screen, FGF22 synaptogenesis inhibitor project, biophysical, thermal shift, single point (AID 651658)
Conditions: recombinant FGF22 thermal shift, SYPRO orange fluorescence; at 9.99 µM; percent of sucrose octasulfate shift, DMSO zero
The campaign covered roughly 340,000 compounds. About 5,100 (1.5%) were called active.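 The calls were made as follows: active = mean Tm shift, scaled 0 neutral to 100 positive control, at about 1.3% or above, every replicate too (limit read from the data); inconclusive = no clear call, values can overlap the other calls; inactive = the rest.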 The entries come from a sample that favours actives as a whole.
Classes used: active, inactive

Cc1cnc(C(=O)OCC(=O)NCCCc2ccccc2)cn1 :: inactive
COC(=O)C[C@@H]1CC[C@@H]2[C@H](COc3ccc(NC(=O)c4cccc(F)c4)cc3C(=O)N2C)O1 :: inactive
C[C@H](CO)N1C[C@H](C)[C@H](CN(C)CC2CCCC2)Oc2ncc(-c3ccc(F)cc3)cc2C1=O :: inactive
COc1ccc(-c2ccc3c(c2)[C@H]2[C@H](CCN2C(=O)C2CCOCC2)[C@H](CO)N3C)cc1 :: inactive
COc1cc(OC)cc(-c2nc(=S)n3ccsc3n2)c1 :: active
COCC(=O)N(C)C[C@H]1Oc2cc(C#C[C@@H](C)O)ccc2S(=O)(=O)N([C@@H](C)CO)C[C@@H]1C :: inactive
CN1C(=O)c2cc(NC(=O)c3cccc(F)c3)ccc2OC[C@@H]2O[C@H](CC(=O)N3CCc4ccccc4C3)CC[C@@H]21 :: active
C[C@@H]1CCCCO[C@@H](CN(C)Cc2ccc(C(=O)O)cc2)[C@H](C)CN([C@H](C)CO)C(=O)c2cc(NS(=O)(=O)c3cccs3)ccc2O1 :: inactive

* * *

The compounds listed here are annotated with their activity (Tm shift, normalised).
Target: Fibroblast growth factor 22 (Homo sapiens) (UniProt Q9HCT0)
Assay: binders of human FGF22 protein, primary screen, FGF22 synaptogenesis inhibitor project, biophysical, thermal shift, single point (AID 651658)
Conditions: recombinant FGF22 thermal shift, SYPRO orange fluorescence; at 9.99 µM; stronger effect = higher value; percent of sucrose octasulfate shift, DMSO zero
The campaign covered roughly 340,000 compounds. About 5,100 (1.5%) were called active. What follows is part of a selection rich in actives, with near analogues and random picks from the rest.
Quantity Kind: activity (Tm shift, normalised)

COc1ccc2c3c(n(C)c2c1)[C@@H](CO)NCC31CCN(CC2CCCC2)CC1 :: -0.076% (inactive)
CC(C)=CCc1c(O)c(CC=C(C)C)c2occ(-c3ccc(O)cc3)c(=O)c2c1O :: 0.178% (inactive)
O=C(COC(=O)c1ccc2c(c1)OCCO2)NCc1ccccc1Cl :: -0.43% (inactive)
CCCCCOc1ccc(CSC2=NCCN2)cc1[N+](=O)[O-] :: 43.9% (active)
NC(=O)N1CCc2ccccc21 :: 43.1% (active)
Cc1cc(OCCCCOc2ccc(C#N)cc2)ccc1[N+](=O)[O-] :: 0.385% (inactive)
O=C(O)CCCCCCC(=O)NOCc1ccccc1 :: -0.15% (inactive)
O=C(NCC[C@H]1CC[C@@H](NC(=O)C2CCCC2)[C@@H](CO)O1)c1cc(Cl)cc(Cl)c1 :: 0.127% (inactive)
Cc1nc(SCc2ccc(F)cc2)c([N+](=O)[O-])[nH]1 :: -0.03% (inactive)
CC(C)=CCc1ccc(O)c(=O)cc1C(C)C :: 43.3% (active)
Cc1ccc(C2=Nc3c(ccc4ccccc34)C(c3ccncc3)=NN2)cc1 :: 44% (active)
Cc1ccccc1S(=O)(=O)N1C[C@@H]2N[C@H](C1)C2c1ccc(-c2cccc(C(=O)N(C)C)c2)cc1 (stereo partly specified) :: 0.138% (inactive)
CC(C)c1cc(N=O)cc(C(C)C)c1O :: -0.097% (inactive)
O=C(NC(=S)N1CCc2ccccc21)c1ccco1 :: 0.306% (inactive)
C[C@H](O)C#Cc1ccc2c(c1)O[C@H](CN(C)Cc1ccccn1)[C@H](C)CN([C@H](C)CO)S2(=O)=O :: -0.169% (inactive)
O=C(COC(=O)c1cc2c(s1)CCCC2)NCc1ccccc1Cl :: 2.24% (active)
Cc1cccc(OCC(O)CN2CCN(CCN3C(=O)c4cccc5cccc(c45)C3=O)CC2)c1C (stereo unspecified) :: 0.358% (inactive)
C[C@H](CO)N1C[C@H](C)[C@H](CN(C)CC2CCCC2)Oc2ncc(Br)cc2C1=O :: -0.016% (inactive)
CC(C)NC(=O)N[C@@H]1CC[C@@H](CCNS(=O)(=O)Cc2ccccc2)O[C@@H]1CO :: -0.299% (inactive)
O=C(N[C@H]1CC[C@@H](CCNS(=O)(=O)c2ccc(F)cc2)O[C@@H]1CO)c1ccccn1 :: 0.123% (inactive)
C[C@@H]1CCCCO[C@H](CN(C)S(=O)(=O)c2ccccc2)[C@@H](C)CN([C@@H](C)CO)C(=O)c2cc(NS(=O)(=O)c3ccccc3)ccc2O1 :: -0.644% (inactive)

Cited source: PubChem BioAssay AID651658
